Attribute: IC50
Molecular target: Angiotensin II receptor (AT-1) type-1 (Rattus norvegicus, UniProt P29089+P25095)
Sequence (P29089 whole entry): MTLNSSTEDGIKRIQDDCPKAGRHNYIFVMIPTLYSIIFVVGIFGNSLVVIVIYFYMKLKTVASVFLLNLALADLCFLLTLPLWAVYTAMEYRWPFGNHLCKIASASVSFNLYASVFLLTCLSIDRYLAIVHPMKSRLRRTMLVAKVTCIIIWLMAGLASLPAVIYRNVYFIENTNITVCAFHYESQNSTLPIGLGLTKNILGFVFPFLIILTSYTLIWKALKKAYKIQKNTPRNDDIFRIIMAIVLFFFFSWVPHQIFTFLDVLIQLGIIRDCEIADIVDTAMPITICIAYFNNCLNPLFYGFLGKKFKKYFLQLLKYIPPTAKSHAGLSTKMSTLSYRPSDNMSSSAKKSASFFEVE
Sequence (P25095 whole entry): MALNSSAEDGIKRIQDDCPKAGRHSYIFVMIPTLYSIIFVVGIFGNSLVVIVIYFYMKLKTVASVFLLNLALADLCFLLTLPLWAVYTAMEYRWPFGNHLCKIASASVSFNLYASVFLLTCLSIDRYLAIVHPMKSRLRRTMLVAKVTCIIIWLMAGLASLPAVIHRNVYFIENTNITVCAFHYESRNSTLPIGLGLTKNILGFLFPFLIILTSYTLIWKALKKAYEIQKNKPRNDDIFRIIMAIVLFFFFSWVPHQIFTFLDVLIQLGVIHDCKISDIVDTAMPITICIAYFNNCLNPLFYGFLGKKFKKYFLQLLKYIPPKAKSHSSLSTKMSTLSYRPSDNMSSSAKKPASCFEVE
Experiment: Inhibition of [125I]-[Sar1,Ile8]Ang II binding at rat angiotensin II (type 1) receptor.
Type: protein assay
The answer is to be given in nM; state only the numeric part.

Tested on Angiotensin II receptor (AT-1) type-1 (Rattus norvegicus, UniProt P29089+P25095): "CCCc1nc(CC)c(C(=O)OC)n1Cc1ccc(-c2ccccc2S(=O)(=O)NC(=O)OCCC(C)C)cc1F" . Observed IC50: 1

Tested on Angiotensin II receptor (AT-1) type-1 (Rattus norvegicus, UniProt P29089+P25095): "CCCc1nc(CC)c(C(=O)CCN(C(=O)c2cccnc2)c2ccccn2)n1Cc1ccc(-c2ccccc2S(=O)(=O)NC(=O)OCCC(C)C)cc1F" . Observed IC50: 0.52

Tested on Angiotensin II receptor (AT-1) type-1 (Rattus norvegicus, UniProt P29089+P25095): "CCCc1nc(CC)c(C(=O)CCN(C(=O)C(C)C)c2cccnc2)n1Cc1ccc(-c2ccccc2S(=O)(=O)NC(=O)OCCC(C)C)cc1F" . Observed IC50: 0.3

Tested on Angiotensin II receptor (AT-1) type-1 (Rattus norvegicus, UniProt P29089+P25095): "CCCc1nc(CC)c(C(=O)CCN(C(=O)c2ccncc2)c2ccccc2)n1Cc1ccc(-c2ccccc2S(=O)(=O)NC(=O)OCCC(C)C)cc1F" . Observed IC50: 0.4

* * *

Target: Angiotensin II receptor (Rattus norvegicus) (UniProt P29089+P25095+P35351)
Test: Ratio of IC50 at Angiotensin II type 1 and angiotensin II type 2 receptors
Assay type: protein assay
Attribute: IC50 ratio
Returns: the value as a bare number; no unit string appended.

>  <Smiles record>
CCCc1nc(CC)c(C(=O)CCN(C(=O)CC)c2cccnc2)n1Cc1ccc(-c2ccccc2S(=O)(=O)NC(=O)OCCC(C)C)cc1F

>  <Target under test>
Angiotensin II receptor (Rattus norvegicus) (UniProt P29089+P25095+P35351)

>  <IC50 ratio>
1.09

$$$$
>  <Smiles record>
CCCc1nc(CC)c(C(=O)CCN(C(=O)c2ccncc2)c2ccccc2)n1Cc1ccc(-c2ccccc2S(=O)(=O)NC(=O)OCCC(C)C)cc1F

>  <Target under test>
Angiotensin II receptor (Rattus norvegicus) (UniProt P29089+P25095+P35351)

>  <IC50 ratio>
0.25

$$$$

Item: "CCCCOC(=O)NS(=O)(=O)c1ccccc1-c1ccc(Cn2c(CCC)nc(CC)c2C(C)=O)c(F)c1" | IC50 ratio: 1

Item: "CCCc1nc(CC)c(C(=O)CCN(C(=O)c2cccnc2)c2ccccn2)n1Cc1ccc(-c2ccccc2S(=O)(=O)NC(=O)OCCC(C)C)cc1F" | IC50 ratio: 0.31
